- target_under_test: Phosphodiesterase 4 (Homo sapiens, UniProt P27815+Q08499+Q07343+Q08493)
- protocol_description: Inhibition of phosphodiesterase 4
- Type: protein assay
Would you kindly list IC50 for each of these compounds?

INPUT: For Phosphodiesterase 4 (Homo sapiens, UniProt P27815+Q08499+Q07343+Q08493), provide IC50 of COc1cc2c3c(n1)C(c1ccccc1)=NC(NC(=O)c1cccnc1)C(=O)N3CC2 (single isomer, unassigned) please.
OUTPUT: 73 µM

INPUT: What measured IC50 is associated with `COc1cc2c3c(c1)C(c1ccccc1)=NCC(=O)N3CC2` on Phosphodiesterase 4 (Homo sapiens, UniProt P27815+Q08499+Q07343+Q08493)?
OUTPUT: 40 µM

INPUT: // map COc1cc2c3c(n1)C(c1ccccc1)=NC(NC(=O)c1cccnc1)C(=O)N3CC2 (stereo in doubt) to recorded IC50 (system: Phosphodiesterase 4 (Homo sapiens, UniProt P27815+Q08499+Q07343+Q08493))
OUTPUT: 4.3 µM

INPUT: Provide value of IC50 for this record tested with Phosphodiesterase 4 (Homo sapiens, UniProt P27815+Q08499+Q07343+Q08493): `COc1cc2c3c(n1)C(c1ccccc1)=N[C@@H](NC(=O)c1cccnc1)C(=O)N3CC2`
OUTPUT: 6.1 µM

INPUT: I'm curious: which IC50 was measured for `Nc1cc2c3c(c1)C(c1ccccc1)=N[C@@H](NC(=O)c1ccncc1)C(=O)N3CC2` tested on Phosphodiesterase 4 (Homo sapiens, UniProt P27815+Q08499+Q07343+Q08493)?
OUTPUT: 0.27 µM

INPUT: Report IC50 for `COc1cc2c3c(n1)C(c1ccccc1)=NCC(=O)N3CC2` tested on Phosphodiesterase 4 (Homo sapiens, UniProt P27815+Q08499+Q07343+Q08493).
OUTPUT: 23 µM
